Reported log10 of IC50 values for a set of compounds
Target: human TLR9 (Homo sapiens)
Sequence (Q9NR96 26-1032): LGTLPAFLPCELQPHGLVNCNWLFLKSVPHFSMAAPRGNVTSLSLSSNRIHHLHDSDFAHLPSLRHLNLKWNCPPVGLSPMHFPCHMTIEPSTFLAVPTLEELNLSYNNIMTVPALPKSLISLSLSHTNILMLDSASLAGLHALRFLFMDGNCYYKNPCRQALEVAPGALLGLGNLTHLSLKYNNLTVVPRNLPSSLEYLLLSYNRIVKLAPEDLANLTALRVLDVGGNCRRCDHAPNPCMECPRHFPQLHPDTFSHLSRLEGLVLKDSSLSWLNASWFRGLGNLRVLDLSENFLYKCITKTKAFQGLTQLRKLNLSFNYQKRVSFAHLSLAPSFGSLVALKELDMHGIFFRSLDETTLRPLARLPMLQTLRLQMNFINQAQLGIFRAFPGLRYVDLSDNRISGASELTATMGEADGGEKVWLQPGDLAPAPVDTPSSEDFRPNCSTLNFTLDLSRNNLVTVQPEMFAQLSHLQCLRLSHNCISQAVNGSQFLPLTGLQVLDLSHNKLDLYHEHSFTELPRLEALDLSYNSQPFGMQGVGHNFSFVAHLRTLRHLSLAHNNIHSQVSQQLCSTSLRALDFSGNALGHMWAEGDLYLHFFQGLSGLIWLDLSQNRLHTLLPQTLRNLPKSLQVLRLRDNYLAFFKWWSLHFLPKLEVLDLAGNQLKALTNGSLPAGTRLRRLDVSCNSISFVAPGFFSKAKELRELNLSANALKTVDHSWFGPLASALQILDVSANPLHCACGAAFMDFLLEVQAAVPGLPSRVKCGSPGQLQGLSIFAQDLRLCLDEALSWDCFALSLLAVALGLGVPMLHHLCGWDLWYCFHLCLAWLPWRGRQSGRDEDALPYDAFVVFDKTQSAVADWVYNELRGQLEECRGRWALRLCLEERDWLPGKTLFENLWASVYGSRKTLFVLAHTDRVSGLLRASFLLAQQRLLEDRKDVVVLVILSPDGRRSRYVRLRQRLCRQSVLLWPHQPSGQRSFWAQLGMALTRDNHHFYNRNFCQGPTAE
Experiment: TLR9 inhibition reporter assay (HEK-Blue cells, SEAP reporter)
Settings: HEK-Blue cells overexpressing human TLR9; stimulated with ODN2006 5 nM; 22 hour incubation; SEAP readout
quantityName: log10 of IC50 (log10 of the value in nM)

# compound, testedOn, quantityName, readoutNumber
measured = [
    ("CC(C)CN1C2CCC1CC(N1CCC([C@@H]3CCc4nc(-c5ccc(S(C)(=O)=O)cc5)cn4C3)CC1)C2 (single isomer, unassigned) [Example 81]", "human TLR9 (Homo sapiens)", "log10 of IC50", 0.96),
    ("COc1ccc(-c2cn3c(n2)CCC(C2CCN(C4CC5(C4)CN(C4CCC4)C5)CC2)C3)cc1OC (single isomer, unassigned) [Example 50]", "human TLR9 (Homo sapiens)", "log10 of IC50", 1.60),
    ("COc1ccc(-c2cn3c(n2)CCC(C2CCN(C4CCN(C(=O)C(C)C)CC4)CC2)C3)cc1OC (single isomer, unassigned) [Example 40]", "human TLR9 (Homo sapiens)", "log10 of IC50", 2.27),
    ("COc1ccc(-c2cn3cc(C4CCN(C5CC6CCC(C5)N6CC(C)C)CC4)cc(C)c3n2)cc1OC (single isomer, unassigned) [Example 19]", "human TLR9 (Homo sapiens)", "log10 of IC50", 1.76),
    ("COc1ccc(-c2cn3c(n2)CC[C@@H](C2CCN(C4CC5CCC(C4)N5C(C)C)CC2)C3)cc1OC (single isomer, unassigned) [Example 137]", "human TLR9 (Homo sapiens)", "log10 of IC50", 1.66),
    ("CC(C)N1CCN(c2ccc(-c3ccc4nc(-c5ccc(S(C)(=O)=O)cc5)nn4c3)cc2)CC1", "human TLR9 (Homo sapiens)", "log10 of IC50", 3.21),
    ("COc1ccc(-c2cn3c(n2)CC[C@H](C2CCN(C4CC5CCC(C4)N5C(C)C)CC2)C3)cc1OC (single isomer, unassigned) [Example 134]", "human TLR9 (Homo sapiens)", "log10 of IC50", 1.83),
    ("CC(C)N1CCC(N2CCC(c3cn4cc(-c5ccc(S(C)(=O)=O)cc5)nc4cc3F)CC2)CC1", "human TLR9 (Homo sapiens)", "log10 of IC50", 2.48),
    ("COc1ccc(-c2cn3cc(C4CCN(C5CC6(C5)CN(CC(C)C)C6)CC4)cc(C)c3n2)cc1OC", "human TLR9 (Homo sapiens)", "log10 of IC50", 1.67),
    ("COc1ccc(-c2cn3c(n2)CC[C@@H](C2CCN(C4CC5CCC(C4)N5CC(C)C)CC2)C3)cc1OC (single isomer, unassigned) [Example 78]", "human TLR9 (Homo sapiens)", "log10 of IC50", 2.03),
]
